Assay: xn = mol fraction of the nth substance listed, in the solute-free solvent
Settings: 278.15 K; x2 = 0.4
VALUE_KIND: solubility (g/100 g solution)

>>> value_reported("O=c1ccc2ccccc2o1 + CC(C)=O + O")
15.3
>>> value_reported("O=C(CC(=O)c1ccccc1)c1ccccc1 + CC(C)O + O")
0.264
>>> value_reported("CC1(C)SC2C(NC(=O)C(NC(=O)N3CCNC3=O)c3ccccc3)C(=O)N2C1C(=O)O (stereo unspecified) + CO + CC(C)O")
0.156
>>> value_reported("O=C(CC(=O)c1ccccc1)c1ccccc1 + CO + O")
0.0257
>>> value_reported("O=C(CC(=O)c1ccccc1)c1ccccc1 + CCO + O")
0.2
>>> value_reported("O=c1ccc2ccccc2o1 + CO + O")
0.573

---

Assay: xn = mol fraction of the nth substance listed, in the solute-free solvent
Details: 283.15 K; x2 = 0.8
VALUE_KIND: solubility (g/100 g solution)

>>> value_reported("CC1(C)SC2C(NC(=O)C(NC(=O)N3CCNC3=O)c3ccccc3)C(=O)N2C1C(=O)O (stereo not given) + CCO + CC(C)O")
0.45
>>> value_reported("O=C(CC(=O)c1ccccc1)c1ccccc1 + CCO + O")
2.11
>>> value_reported("CCOC(=O)C1=CC2(CC)CCCN3CCc4c(n1c1ccccc41)C32 (stereo not given) + CCO + O")
0.372
>>> value_reported("O=c1ccc2ccccc2o1 + CC(C)=O + O")
35.3
>>> value_reported("CC1(C)SC2C(NC(=O)C(NC(=O)N3CCNC3=O)c3ccccc3)C(=O)N2C1C(=O)O (stereo not given) + CO + CC(C)O")
0.297

---

Experiment: xn = mol fraction of the nth substance listed, in the solute-free solvent
Conditions: 303.15 K; x2 = 0.2307
# if value of solubility (g/100 g solution) reaches 0.9, tag YES; if it stays below, tag NO

>>> category("CS(=O)(=O)c1ccc(C(O)C(CF)NC(=O)C(Cl)Cl)cc1 (stereo not given) + CC(C)O + O")
"YES"
>>> category("O=[N+]([O-])c1cc[nH]n1 + CCCO + O")
"YES"
>>> category("COC(=O)C1=C(C)NC(C)=C(C(=O)OCC(C)C)C1c1ccccc1[N+](=O)[O-] (stereo not given) + CCCO + O")
"YES"
>>> category("CC(=O)Nc1ccc(OC(=O)c2ccccc2OC(C)=O)cc1 + CC(C)O + O")
"NO"
>>> category("O=c1[nH]cc(F)c(=O)[nH]1 + CCCO + C1CCOC1")
"NO"

---

Assay: xn = mol fraction of the nth substance listed, in the solute-free solvent
Details: 283.15 K; x2 = 0.1666
Reported values of solubility (g/100 g solution) for individual entries
VALUE_KIND: solubility (g/100 g solution)

>>> value_reported("COC(=O)C1=C(C)NC(C)=C(C(=O)OCC(C)C)C1c1ccccc1[N+](=O)[O-] (stereo not given) + CCCO + O")
1.75
>>> value_reported("CS(=O)(=O)c1ccc(C(O)C(CF)NC(=O)C(Cl)Cl)cc1 (stereo not given) + CC(C)O + O")
0.266
>>> value_reported("O=[N+]([O-])c1cc[nH]n1 + CCCO + O")
0.964
>>> value_reported("CC(=O)Nc1ccc(OC(=O)c2ccccc2OC(C)=O)cc1 + CC(C)O + O")
0.0342
>>> value_reported("COC(=O)C1=C(C)NC(C)=C(C(=O)OCC(C)C)C1c1ccccc1[N+](=O)[O-] (stereo not given) + CC(C)O + O")
2.22

This collection of values is drawn from the CheMixHub drug solubility set.
